conditions: basic group
measured_parameter: pKa

Record `CSc1cccc(N)c1` , field pKa: 4.05

According to the records, this molecule `Cc1cc(-c2ccc([NH3+])c(C)c2)ccc1N` displays pKa of 3.38

In plain terms, `C#CC(C)(C)N(C)C(C)(C)C#C` has a documented pKa of 6.65

Entry under test: `C[n+]1cnc2nc([O-])cnc2c1[O-]` . Its pKa was 6.19

Input `O/N=C(/Cc1ccccc1)NO` . Output pKa: 4.25

The molecule listed as `NCCCNCCCN` has a reported pKa of 10.7

The measured pKa associated with `CC(C)(C)c1ccc(N)cc1` reads 4.95

Summary for this molecule, CC[NH+](CC)CCCC(C)Nc1cc[nH+]c2ccc(OC)cc12 (stereo not given) : pKa is -7.83

Summary for this molecule, `O=[N+]([O-])c1ccc2[nH]c(-c3cccs3)nc2c1` : pKa is 2.36

Measured pKa of `[NH3+][C@@H](Cc1nc(I)[nH]c1I)C(=O)[O-]` : 2.72

// field: pKa; key: `CC(C)N1CCC(NN)CC1` ; value = 9.65

`CCN(CC)Cc1cc(C)ccc1O` has a reported pKa of 8.94

get_value(item= COc1cc(S(C)=O)ccc1-c1cn2ccnc(OC)c2n1 (stereo not given) , readout=pKa) returns 2.46

The molecule listed as `O=C([O-])[C@@H]1CCC[C@H](C(=O)[O-])N1` has a reported pKa of 9.92

For `[S-]c1ccnc2ccccc12` the molecule record lists pKa as 8.83

----------
settings: acidic group
Give TRUE when the value for pKa is at least 7. Give FALSE when it is less.

Task item: Kindly determine if pKa recorded for `S=C(Nc1ccc(Cl)c(Cl)c1)c1ccc(Cl)cc1` is above or exactly 7.
Reply: TRUE

Task item: Item `O=[N+]([O-])c1ccc(S)c([N+](=O)[O-])c1` with pKa of 7 or above?
Reply: FALSE

Task item: # check: pKa of `Cc1c[nH]c(C(=O)O)c1` is greater than or equal to 7
Reply: FALSE

Task item: Exam item: decide whether the reported pKa for `COc1ccc(C(=S)Nc2ccc(Cl)c(Cl)c2)cc1` is at least 7.
Reply: TRUE

Task item: // inclusive: pKa at least 7? input: `O=C([O-])c1ccccc1-n1nc(O)cc1-c1ccccc1`
Reply: TRUE

Task item: For this molecule, is measured pKa 7 or higher? `O=C1NC(=O)c2ccccc21`
Reply: TRUE

Task item: Would you say `CC(C)(C(N)=O)S(N)(=O)=O` shows pKa at minimum 7?
Reply: TRUE

Task item: Does the reported pKa for `CCc1n[nH]c(CC)n1` fall at or above the 7 mark?
Reply: TRUE

Task item: Decide: pKa of `Cc1cc(/N=N/c2ccc(S([NH-])(=O)=O)cc2)cc(C(=O)[O-])c1O` >= 7?
Reply: TRUE

Task item: Kindly determine if pKa recorded for `O=[N+]([O-])c1[nH]cnc1Cl` is above or exactly 7.
Reply: FALSE

Task item: Hi team, for `COc1ccccc1-c1ccccc1O` , is the recorded pKa at or above 7?
Reply: TRUE

Task item: Item `O=C(O)[C@@H]1O[C@H](Oc2ccc(Br)cc2)[C@@H](O)[C@H](O)[C@H]1O` with pKa of 7 or above?
Reply: FALSE

----------
Kindly supply the reported pKa values for the records listed here.
conditions: basic group
Give your answer as a number; write no unit.

// recorded pKa for `CCCCCCCCCCCCCCCCCN` : 10.6

Recorded result, `Cc1ccc2ccc3cccnc3c2n1` , pKa: 5.36

The reported value for `c1ccc2c(c1)NCC[NH2+]2` in terms of pKa is 2.11

`Cc1ccc2c(c1)N1CC[NH+]2CC1` has a reported pKa of 2.4

For reference, reported pKa for `Cc1[nH]cnc1CSCCNC(=N)NCCCc1c[nH]cn1` stands at 11.6

// field: pKa; key: `C[C@@H](N)C(=O)N1CCC[C@H]1C(=O)[O-]` ; value = 8.38

According to the records, this compound CC(CC(c1ccccc1)c1ccccc1)N1CCCCC1 (centres undefined) displays pKa of 8.8

`Cn1ccnc1CS` yielded pKa of 6.31

GET /value?item= `C[C@@H]1[C@@H]2Cc3ccc(O)cc3[C@@]1(C)CCN2CCF` &field=pKa returns 8.35

So, `CN(C)Cc1c(C(C)(C)C)cccc1C(C)(C)C` ? Its pKa was 9.2

// field: pKa; key: `CN(C)CCc1nnn[n-]1` ; value = 9.39

Recorded result, `c1ccc(-c2cc3cccnc3c3ncccc23)cc1` , pKa: 4.72

// sample `COc1ccc(S(=O)(=O)NCCN2CCOCC2)c(OC)c1OC` , its pKa was 6.16

Recorded result, `CCCCCCCN` , pKa: 10.3

----------
conditions: basic group
# class assignment by measured pKa: one (below 6), two (6 to below 8), three (8 or more)

Task item: Lab note: which band did `CCCCCCCCCCCCCCCCCc1c2ccccc2nc2ccccc12` land in?
Reply: one

Task item: Returns: class label. Input: `C=C(C)C(=O)OCCN(CC)CC`
Reply: three

Task item: Into which category would you place `[NH3+]CCN1CCOCC1` ?
Reply: one

Task item: Given `CC(C)n1nnnc1N` , name the class its pKa places it in.
Reply: one

Task item: Which category fits this record: `Nc1ccc(-c2cnc(-c3ccc(Br)cc3)o2)cc1`
Reply: one

Task item: Into which category would you place `CCCCN1CCCC1` ?
Reply: three

Task item: Exam item: assign `NC(c1ncc[nH]1)c1ncc[nH]1` to the correct category.
Reply: two

Task item: // return the class label for `Cn1cncc1C[C@H]([NH3+])C(=O)[O-]`
Reply: two

Task item: Exam item: assign `CSc1ccc2ccccc2n1` to the correct category.
Reply: one

Task item: Which pKa band matches `Cc1cc(N)nc2ccc3ccccc3c12` ?
Reply: two

Task item: Entry C=CCC(C)(CN(CC)CC)OC(C)=O (stereo unspecified) belongs to which category?
Reply: three

Task item: Assign a bin to `CN(C)/C=N/c1ccccc1[N+](=O)[O-]`
Reply: one

Task item: Please report the category associated with `CCN(CC)CCOCC[NH+](CC)CC` , nothing else.
Reply: three

Task item: Which category does the recorded pKa put `NCCC(=O)[O-]` in?
Reply: three

Task item: Bin this entry: `C/C(=N\c1ccccc1)Nc1ccccc1`
Reply: three

Task item: The entry to classify is `Nc1c(Br)cccc1Br` ; which class holds it?
Reply: one

Task item: Which bin should I file `Fc1cc2nc[nH]c2cc1Cl` under?
Reply: one

Task item: Dear colleague, I would appreciate it if you could identify the bin for `Cc1ccc([N+](=O)[O-])c2c(NCCC[NH+](C)C)c3ccccc3nc12` and reply at your convenience.
Reply: two

Task item: # bin lookup: classify `C/C(=C\C(C)=N\c1ccccc1)Nc1ccccc1` by its pKa
Reply: two

Task item: Hey, which category is `Cc1nc2ncncc2[nH]1` in, do you know?
Reply: one

Task item: The entry to classify is `CC1=C[C@H]2CC[C@@H](O)[C@H]2N1C` ; which class holds it?
Reply: three

Task item: Consider `CCCC[C@H](N)C(=O)[O-]` . To which pKa class does it belong?
Reply: three

Task item: Sort into band: NC(=O)C([NH3+])Cc1c[nH]cn1 (stereo unspecified)
Reply: one

Task item: In plain terms, what class is COc1ccc(C(O)c2ccccc2)cc1 (stereo unspecified) ?
Reply: one

Task item: Hi, small favor: classify `Cc1cc(-n2nc(C)cc2C)[nH]n1` by its pKa when you get a moment.
Reply: one

Task item: Tag the class for `O=[N+](O)C1=CC=CC1`
Reply: one

Task item: Exam item: assign `CCC(=O)C(C[C@H](C)N1CCOCC1)(c1ccccc1)c1ccccc1` to the correct category.
Reply: two

Task item: Classify this compound: O=C1c2ccccc2CN1C1CC2CCC(C1)N2Cc1ccccc1 (stereo unspecified)
Reply: three

Task item: Textbook exercise: identify the category of the compound given here, `CCCCCCNCCC(=O)[O-]` , according to its measured value.
Reply: three

Task item: Place this compound in its band: `Cc1cccc(/N=C/N(C)C)c1`
Reply: three

----------
Provide the reported pKa of each item.
conditions: basic group
Enter the number alone.

get_value(item= `CN(C)CCNCCN` , readout=pKa) returns 9.91

Lab book: pKa of `C[NH+](C)CCCNc1c2ccccc2nc2c(F)ccc([N+](=O)[O-])c12` noted as 5.41

Per the records, this compound ( `Oc1ccc2ccnnc2c1` ) has pKa equal to 3.31

Record summary for `Cn1cccc1-c1cccnc1` : reported pKa = 4.73

Note to self: pKa recorded for `CN(C)CC(C)(C)C` was 9.75

Quick note, pKa for `CCOCCn1c(CN2CCN(CCCCn3cccn3)CC2)nc2ccccc21` landed at 7.9

get_value(item= `CC(=O)N1CCNCC1` , readout=pKa) returns 7.94

Short answer for `Nc1cccc(-c2cccc(N)n2)n1` : pKa was 6.7

pKa reported for this compound `NNC(=O)c1cccc([NH3+])c1` : 2.57

Sample `Nc1ccc(C=O)cc1` ; pKa observed: 1.74

The compound `Cc1cccc(N)c1C` showed pKa equal to 4.56

Lab note: measured pKa of CC(C)CC(N)C(=O)[O-] (stereo not given) was 9.76

// recorded pKa for `Cc1ccc(NC(C)(C)C)cc1` : 7.3

Documented pKa of `C(CNCCc1nnn[n-]1)NCCc1nnn[n-]1` : 9.33

For this compound ( CN(C)CCOC(c1ccccc1)c1ccc(Br)cc1 (stereo not given) ), measured pKa is 8.64

Recorded values, source the pKa sets of Baltruschat and Czodrowski (2020).
